assay notes: physchem
Type: physicochemical
experimental setup: pH 7.4
measurement type: logD

What does the data say about its logD? Entry: `O=C(O)c1ccccn1` < -2

====

measured target: human carbonic anhydrase II (hCAII) (Homo sapiens)
pIC50: −log10 of the molar value.
measurement type: pIC50

What does the data say about its pIC50? Entry: `O=C(O)c1ccccn1` < 3.00

====

assay notes: physchem
Format: physicochemical
measurement type: pKa

What does the data say about its pKa? Entry: `O=C(O)c1ccccn1` < 1.5
